# ASSAY NOTES: Solubility in water
# Format: physicochemical
MEASUREMENT NAME: solubility (µg/mL)
Dear colleague, please return just the value in µg/mL, with no unit written.

q: Consider the molecule shown here: O=C1N[C@H]2[C@H](O)[C@H](O)[C@@H](O)[C@H](O)[C@@H]2c2cc3c(c(OP(=O)([O-])[O-])c21)OCO3.[Na+].[Na+] What is its recorded solubility?
a: 20

q: Would you kindly repeat that for O=C1N[C@H]2[C@H](O)[C@H](O)[C@@H](O)[C@H](O)[C@@H]2c2cc3c(c(O)c21)OCO3 [PANCRATISTATIN] ?
a: 53
